# Tested on: Hs294T (human melanoma)
# Method: cells
# Type: cell-based
# Test Context: selectivity coefficient vs normal BALB/3T3 cells
compounds and their reported Hs294T SI
Measure Name: Hs294T SI

| Structure Smiles | Value |
| --- | --- |
| CC[C@@H](C(=O)[C@@H](C)[C@@H](O)[C@H](C)[C@@H]1O[C@@H]([C@@H](CC)C(=O)O)CC[C@@H]1C)[C@H]1O[C@]2(C=C[C@@H](NC(=S)Nc3cc(Cl)cc(Cl)c3)[C@]3(CC[C@@](C)([C@H]4CC[C@](O)(CC)[C@H](C)O4)O3)O2)[C@H](C)C[C@@H]1C | 1.1 |
| CCCCCCCCNC(=O)N[C@@H]1C=C[C@]2(O[C@H]([C@@H](CC)C(=O)[C@@H](C)[C@@H](O)[C@H](C)[C@@H]3O[C@@H]([C@@H](CC)C(=O)O)CC[C@@H]3C)[C@@H](C)C[C@H]2C)O[C@@]12CC[C@@](C)([C@H]1CC[C@](O)(CC)[C@H](C)O1)O2 | 0.5 |

* * *

# Test system: NCI-H23 (human lung cancer)
# Method: In vitro cytotoxicity, SRB assay, NCI-H23
# Type: cell-based
# Test Context: Homo sapiens, NCI-H23; 72 h with compound, SRB; n/a = non-active compound; read-out: NCI-H23 IC50

| Compound | IC50, nM |
| --- | --- |
| CC[C@@H](C(=O)[C@@H](C)[C@@H](O)[C@H](C)[C@@H]1O[C@@H]([C@@H](CC)C(=O)O)CC[C@@H]1C)[C@H]1O[C@]2(C=C[C@@H](NC(=O)NCc3ccc(F)cc3)[C@]3(CC[C@@](C)([C@H]4CC[C@](O)(CC)[C@H](C)O4)O3)O2)[C@H](C)C[C@@H]1C [FLC-00383-1] | 24.6 |
| CC[C@@H](C(=O)[C@@H](C)[C@@H](O)[C@H](C)[C@@H]1O[C@@H]([C@@H](CC)C(=O)O)CC[C@@H]1C)[C@H]1O[C@]2(C=C[C@@H](NC(=S)NCCCSC)[C@]3(CC[C@@](C)([C@H]4CC[C@](O)(CC)[C@H](C)O4)O3)O2)[C@H](C)C[C@@H]1C [FLC-00345-1] | 46.5 |
| CC[C@@H](C(=O)[C@@H](C)[C@@H](O)[C@H](C)[C@@H]1O[C@@H]([C@@H](CC)C(=O)O)CC[C@@H]1C)[C@H]1O[C@]2(C=C[C@@H](NC(=O)NC3CCCCC3)[C@]3(CC[C@@](C)([C@H]4CC[C@](O)(CC)[C@H](C)O4)O3)O2)[C@H](C)C[C@@H]1C [FLC-00384-1] | 27.7 |

* * *

# Test system: MV-4-11 (human biphenotypic leukaemia)
# Method: In vitro cytotoxicity, MTT assay, MV-4-11
# Assay type: cell-based
Mark each entry Y if its SI MV4-11 sits below 10, and N for all others.

| Structure Smiles | Label Class |
| --- | --- |
| CC[C@@H](C(=O)[C@@H](C)[C@@H](O)[C@H](C)[C@@H]1O[C@@H]([C@@H](CC)C(=O)O)CC[C@@H]1C)[C@H]1O[C@]2(C=C[C@@H](NC(=O)OCCOCc3ccccc3)[C@]3(CC[C@@](C)([C@H]4CC[C@](O)(CC)[C@H](C)O4)O3)O2)[C@H](C)C[C@@H]1C | N |
| CC[C@@H](C(=O)[C@@H](C)[C@@H](O)[C@H](C)[C@@H]1O[C@@H]([C@@H](CC)C(=O)O)CC[C@@H]1C)[C@H]1O[C@]2(C=C[C@@H](NC(=O)NCCCN3CCS(=O)(=O)CC3)[C@]3(CC[C@@](C)([C@H]4CC[C@](O)(CC)[C@H](C)O4)O3)O2)[C@H](C)C[C@@H]1C | Y |
| CC[C@@H](C(=O)[C@@H](C)[C@@H](O)[C@H](C)[C@@H]1O[C@@H]([C@@H](CC)C(=O)O)CC[C@@H]1C)[C@H]1O[C@]2(C=C[C@@H](NS(=O)(=O)c3ccc(C)cc3)[C@]3(CC[C@@](C)([C@H]4CC[C@](O)(CC)[C@H](C)O4)O3)O2)[C@H](C)C[C@@H]1C | N |
| CC[C@@H](C(=O)[C@@H](C)[C@@H](O)[C@H](C)[C@@H]1O[C@@H]([C@@H](CC)C(=O)O)CC[C@@H]1C)[C@H]1O[C@]2(C=C[C@@H](NC(=O)c3ccncc3)[C@]3(CC[C@@](C)([C@H]4CC[C@](O)(CC)[C@H](C)O4)O3)O2)[C@H](C)C[C@@H]1C | N |
| CC[C@@H](C(=O)[C@@H](C)[C@@H](O)[C@H](C)[C@@H]1O[C@@H]([C@@H](CC)C(=O)O)CC[C@@H]1C)[C@H]1O[C@]2(C=C[C@@H](NC(=O)OC(C(F)(F)F)C(F)(F)F)[C@]3(CC[C@@](C)([C@H]4CC[C@](O)(CC)[C@H](C)O4)O3)O2)[C@H](C)C[C@@H]1C | Y |
